- Test system: S. marcescens No. 16-2
- Method: MIC, agar plate dilution method
- Format: cell-based
- Condition: Serratia marcescens, NO.162; S. marcescens No. 16-2; 10^6 CFU/ml; Sensitivity Disk Agar; read-out: Minimum Inhibitory Concentration
Experimental readout: log10 MIC (log10 of the value in µg/mL)
In our notation, the value equals log10 of MIC in µg/mL.

QUERY: Give log10 MIC (S. marcescens No. 16-2) of the following molecule: CO/N=C(\C(=O)NC1C(=O)N2C(C(=O)[O-])=C(C[N+]3(C)Cc4ccccc4C3)CSC12)c1csc(N)n1 (centres unmarked) [Reference Ex., reference compound]
RESULT: 1.10

QUERY: Return log10 MIC measured with S. marcescens No. 16-2 given this molecule: CC(C)ON=C(C(=O)NC1C(=O)N2C(C(=O)[O-])=C(C[N+]3(C)Cc4cc(O)c(O)cc4C3)CSC12)c1csc(N)n1 (centres unmarked)
RESULT: -0.11

QUERY: Give the reported log10 MIC for CC(C)(ON=C(C(=O)NC1C(=O)N2C(C(=O)[O-])=C(C[N+]3(C)Cc4cc(O)c(O)cc4C3)CSC12)c1csc(N)n1)C(=O)O (centres unmarked) (system: S. marcescens No. 16-2).
RESULT: -0.41

QUERY: Request - read-out log10 MIC | tested on S. marcescens No. 16-2 | molecule C[N+]1(CC2=C(C(=O)[O-])N3C(=O)C(NC(=O)C(=NOC4(C(=O)O)CCCC4)c4csc(N)n4)C3SC2)Cc2cc(O)c(O)cc2C1 (centres unmarked)
RESULT: -0.41

QUERY: # value lookup — system S. marcescens No. 16-2, readout log10 MIC, item CO/N=C(\C(=O)N[C@@H]1C(=O)N2C(C(=O)O)=C(COC(C)=O)CS[C@H]12)c1csc(N)n1 [Cefotaxime, reference compound]
RESULT: 0.80

QUERY: Field: log10 MIC (S. marcescens No. 16-2). Entry: CO/N=C(\C(=O)NC1C(=O)N2C(C(=O)[O-])=C(C[N+]3(C)Cc4ccc(OC(C)=O)cc4C3)CSC12)c1csc(N)n1 (centres unmarked)
RESULT: 1.10

QUERY: Write down the reported log10 MIC of C[N+]1(CC2=C(C(=O)[O-])N3C(=O)C(NC(=O)C(=NOCC(=O)O)c4csc(N)n4)C3SC2)Cc2cc(O)c(O)cc2C1 (centres unmarked) , test system: S. marcescens No. 16-2.
RESULT: -0.11

QUERY: Form: Entry = CCON=C(C(=O)NC1C(=O)N2C(C(=O)[O-])=C(C[N+]3(C)Cc4cc(O)c(O)cc4C3)CSC12)c1csc(N)n1 (centres unmarked) | System = S. marcescens No. 16-2 | log10 MIC = ____
RESULT: 0.49

###

- Tested on: P. aeruginosa AK109
- Method: MIC, agar plate dilution method
- Type: cell-based, Pseudomonas aeruginosa
- Condition: Pseudomonas aeruginosa; P. aeruginosa AK109; 10^6 CFU/ml; Sensitivity Disk Agar; read-out: Minimum Inhibitory Concentration
Provide the reported MIC of each item.
A number alone suffices; assume µg/mL.

QUERY: So what's the measured MIC for this one? CO/N=C(\C(=O)N[C@@H]1C(=O)N2C(C(=O)O)=C(COC(C)=O)CS[C@H]12)c1csc(N)n1 [Cefotaxime, reference compound]
RESULT: 6.25

QUERY: Need MIC of CO/N=C(\C(=O)NC1C(=O)N2C(C(=O)[O-])=C(C[N+]3(C)Cc4ccc(O)cc4C3)CSC12)c1csc(N)n1 (centres unmarked) [Ex. 2-D] , thanks.
RESULT: 3.12

QUERY: Reported MIC for CO/N=C(\C(=O)NC1C(=O)N2C(C(=O)[O-])=C(C[N+]3(C)Cc4cc(OC(C)=O)c(OC(C)=O)cc4C3)CSC12)c1csc(N)n1 (centres unmarked) [Ex. 3-D] : what is it?
RESULT: 0.2

QUERY: # get_value(readout='MIC', item= C[N+]1(CC2=C(C(=O)[O-])N3C(=O)C(NC(=O)C(=NOC4CCCC4)c4csc(N)n4)C3SC2)Cc2cc(O)c(O)cc2C1 (centres unmarked) [Ex. 13-D] )
RESULT: 0.05

QUERY: # lookup: MIC of CO/N=C(\C(=O)NC1C(=O)N2C(C(=O)[O-])=C(C[N+]3(C)Cc4ccccc4C3)CSC12)c1csc(N)n1 (centres unmarked) [Reference Ex., reference compound]
RESULT: 3.12

QUERY: Consider the compound CON=C(C(=O)NC1C(=O)N2C(C(=O)[O-])=C(C[N+]3(C)Cc4cc(O)c(O)cc4C3)CSC12)c1csc(N)n1 (centres unmarked) [Ex. 4-D] and give its measured MIC.
RESULT: 0.1

###

- Test system: E. coli W3630/Rms212
- Method: MIC, agar plate dilution method
- Format: cell-based
- Condition: Escherichia coli, W3630/RMS212, read-out: Minimum Inhibitory Concentration
Experimental readout: MIC

QUERY: Query the reported MIC for E. coli W3630/Rms212; item: C[N+]1(CC2=C(C(=O)[O-])N3C(=O)C(NC(=O)C(=NOC4(C(=O)O)CCC4)c4csc(N)n4)C3SC2)Cc2cc(O)c(O)cc2C1 (stereo not drawn)
RESULT: ≤ 0.05 µg/mL

QUERY: Reported MIC for E. coli W3630/Rms212, given CO/N=C(\C(=O)N[C@@H]1C(=O)N2C(C(=O)O)=C(COC(C)=O)CS[C@H]12)c1csc(N)n1 [Cefotaxime, reference compound] ?
RESULT: 0.1 µg/mL

QUERY: Form field - read-out: MIC; system: E. coli W3630/Rms212; submitted item: CON=C(C(=O)NC1C(=O)N2C(C(=O)[O-])=C(C[N+]3(C)Cc4cc(O)c(O)cc4C3)CSC12)c1csc(N)n1 (stereo not drawn)
RESULT: ≤ 0.05 µg/mL

QUERY: Item: C[N+]1(CC2=C(C(=O)[O-])N3C(=O)C(NC(=O)C(=NOC4(C(=O)O)CCCC4)c4csc(N)n4)C3SC2)Cc2cc(O)c(O)cc2C1 (stereo not drawn) Test system: E. coli W3630/Rms212 Read-out: MIC Value: ?
RESULT: ≤ 0.05 µg/mL

QUERY: What is its MIC for E. coli W3630/Rms212? Entry: CC(C)(ON=C(C(=O)NC1C(=O)N2C(C(=O)[O-])=C(C[N+]3(C)Cc4cc(O)c(O)cc4C3)CSC12)c1csc(N)n1)C(=O)O (stereo not drawn)
RESULT: ≤ 0.05 µg/mL

QUERY: Can you look up MIC on E. coli W3630/Rms212 for C[N+]1(CC2=C(C(=O)[O-])N3C(=O)C(NC(=O)C(=NOC4CCCC4)c4csc(N)n4)C3SC2)Cc2cc(O)c(O)cc2C1 (stereo not drawn) ?
RESULT: 0.025 µg/mL

QUERY: Form: Entry = CO/N=C(\C(=O)NC1C(=O)N2C(C(=O)[O-])=C(C[N+]3(C)Cc4ccc(O)cc4C3)CSC12)c1csc(N)n1 (stereo not drawn) | System = E. coli W3630/Rms212 | MIC = ____
RESULT: 0.2 µg/mL

QUERY: Could you share what MIC was measured for CCON=C(C(=O)NC1C(=O)N2C(C(=O)[O-])=C(C[N+]3(C)Cc4cc(O)c(O)cc4C3)CSC12)c1csc(N)n1 (stereo not drawn) , tested on E. coli W3630/Rms212?
RESULT: ≤ 0.05 µg/mL

QUERY: Checklist item: MIC tested on E. coli W3630/Rms212, entry C[N+]1(CC2=C(C(=O)[O-])N3C(=O)C(NC(=O)C(=NOC4(C(=O)O)CC4)c4csc(N)n4)C3SC2)Cc2cc(O)c(O)cc2C1 (stereo not drawn) , value?
RESULT: ≤ 0.05 µg/mL

QUERY: Can you look up MIC on E. coli W3630/Rms212 for CO/N=C(\C(=O)NC1C(=O)N2C(C(=O)[O-])=C(C[N+]3(C)Cc4ccccc4C3)CSC12)c1csc(N)n1 (stereo not drawn) [Reference Ex., reference compound] ?
RESULT: 0.2 µg/mL

QUERY: API: value(readout= MIC, system= E. coli W3630/Rms212, query= CO/N=C(\C(=O)NC1C(=O)N2C(C(=O)[O-])=C(C[N+]3(C)Cc4ccc(OC(C)=O)cc4C3)CSC12)c1csc(N)n1 (stereo not drawn) )
RESULT: 0.2 µg/mL

QUERY: Under E. coli W3630/Rms212: MIC value of CO/N=C(\C(=O)NC1C(=O)N2C(C(=O)[O-])=C(C[N+]3(C)Cc4cc(OC(C)=O)c(OC(C)=O)cc4C3)CSC12)c1csc(N)n1 (stereo not drawn) ?
RESULT: ≤ 0.05 µg/mL

QUERY: Fill in the recorded MIC for this compound, with E. coli W3630/Rms212 as test system: C[N+]1(CC2=C(C(=O)[O-])N3C(=O)C(NC(=O)C(=NOCC(=O)O)c4csc(N)n4)C3SC2)Cc2cc(O)c(O)cc2C1 (stereo not drawn)
RESULT: ≤ 0.05 µg/mL

QUERY: Form field - read-out: MIC; system: E. coli W3630/Rms212; submitted item: CC(C)ON=C(C(=O)NC1C(=O)N2C(C(=O)[O-])=C(C[N+]3(C)Cc4cc(O)c(O)cc4C3)CSC12)c1csc(N)n1 (stereo not drawn)
RESULT: ≤ 0.05 µg/mL

QUERY: State its MIC on E. coli W3630/Rms212: CC(C)(O/N=C(\C(=O)N[C@@H]1C(=O)N2C(C(=O)[O-])=C(C[n+]3ccccc3)CS[C@H]12)c1csc(N)n1)C(=O)O [Ceftazidime, reference compound]
RESULT: 0.2 µg/mL

These data points were gathered from patent US4677100A.
